Values from ChEMBL document CHEMBL3885881

# Species: Rattus norvegicus
# assay explanation: DrugMatrix - Regimen: Daily Repeat
# Assay type: toxicity, organism-based, Sprague-Dawley
# Set-up: regimen Daily Repeat, gender Male, age 6-8 weeks
# conditions: in vivo, po, 7 mg/kg, 96 h, tissue Blood, route oral GAVAGE, dose level M1, time 4 day, […]
value type: ABSOLUTE MONOCYTE (cells/µL)

1. COc1ccc2c(c1)c(CC(=O)O)c(C)n2C(=O)c1ccc(Cl)cc1 | 160

----------
# Species on record: Rattus norvegicus
# assay explanation: DrugMatrix - Regimen: Daily Repeat
# Format: toxicity, organism-based, Sprague-Dawley
# Design: regimen Daily Repeat, gender Male, age 6-8 weeks
# conditions: in vivo, ip, 0 mg/kg, […], tissue Blood, route intraperitoneal, dose level Control, time 28 day, vehicle 100 % SALINE
value type: ABSOLUTE BASOPHIL (cells/µL)

1. CCN[C@@H]1C[C@H](N)[C@@H](O[C@H]2OC(CN)=CC[C@H]2N)[C@H](O)[C@H]1O[C@H]1OC[C@](C)(O)[C@H](NC)[C@H]1O | 91

----------
# Species: Rattus norvegicus
# assay explanation: DrugMatrix - Regimen: Daily Repeat
# Assay type: toxicity, organism-based, Sprague-Dawley
# Design: regimen Daily Repeat, gender Male, age 6-8 weeks
# conditions: in vivo, po, 0 mg/kg, 120 h, tissue Plasma, route oral GAVAGE, dose level Control, time 5 day, vehicle 100 % WATER
value type: SODIUM (MEQ/L)

1) Cc1ncc([N+](=O)[O-])n1CCO [METRONIDAZOLE] | 145.55
2) C[C@@H]1C[C@@H]([C@H](O)CC2CC(=O)NC(=O)C2)C(=O)[C@@H](C)C1 [CYCLOHEXIMIDE] | 143.85
3) CC(C)(C)c1ccc(C(=O)CCCN2CCC(OC(c3ccccc3)c3ccccc3)CC2)cc1 [EBASTINE] | 142.77
4) CC(C)NCC(O)COc1cccc2ccccc12 (centres undefined) [PROPRANOLOL] | 145.17
5) ClC(Cl)Cl [CHLOROFORM] | 145.55
6) CC(C)C[C@H](NC(=O)[C@@H](O)[C@H](N)Cc1ccccc1)C(=O)O [UBENIMEX] | 146.95
7) C[N+](C)(C)CCO.[Cl-] [CHOLINE CHLORIDE] | 144.13
8) Nc1ccn([C@@H]2CS[C@H](CO)O2)c(=O)n1 [LAMIVUDINE] | 145.35
9) COC(=O)C1=C(C)NC(C)=C(C(=O)OCC(C)C)C1c1ccccc1[N+](=O)[O-] (centres undefined) [NISOLDIPINE] | 144.57

----------
# Species: Rattus norvegicus
# assay explanation: DrugMatrix - Regimen: Daily Repeat
# Assay type: toxicity, organism-based, Sprague-Dawley
# Set-up: regimen Daily Repeat, gender Male, age 6-8 weeks
# conditions: in vivo, po, 0 mg/kg, 72 h, tissue Blood, route oral GAVAGE, dose level Control, time 3 day, […]
value type: ABSOLUTE SEGMENTED NEUTROPHIL

1. O=C(O)Cc1ccccc1Nc1c(Cl)cccc1Cl | 896.67 CELLS/uL
2. Cc1cccc(Nc2ccncc2S(=O)(=O)NC(=O)NC(C)C)c1 [TORSEMIDE] | 906 CELLS/uL
3. C[C@]12CC[C@@H]3c4ccc(O)cc4CC[C@H]3[C@@H]1CC[C@@H]2O | 906 CELLS/uL
4. COc1ccc2[nH]c([S+]([O-])Cc3ncc(C)c(OC)c3C)nc2c1 (configuration not stated) | 987 CELLS/uL
5. S=C=Nc1cccc2ccccc12 [1-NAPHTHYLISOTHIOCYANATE] | 839.67 CELLS/uL
6. CCCCCCCCc1ccc(O)cc1 | 1186.67 CELLS/uL
7. CC/C(=C(/CC)c1ccc(O)cc1)c1ccc(O)cc1 | 535.5 CELLS/uL

----------
GLUCOSE by entry:
# Species on record: Rattus norvegicus
# assay explanation: DrugMatrix - Regimen: Daily Repeat
# Assay type: toxicity, organism-based, Sprague-Dawley
# Design: regimen Daily Repeat, gender Male, age 6-8 weeks
# conditions: in vivo, po, 0 mg/kg, 72 h, tissue Plasma, route oral GAVAGE, dose level Control, time 3 day, […]
value type: GLUCOSE (mg/dL)

1) CCOC(=O)C1=C(C)NC(C)=C(C(=O)OC)C1c1cccc([N+](=O)[O-])c1 (stereo not given) | 142.67
2) C[C@]12CC[C@@H]3c4ccc(O)cc4CC[C@H]3[C@@H]1CC[C@@H]2O | 164.5
3) C[C@H]1O[C@@H](O[C@H]2[C@@H](O)C[C@H](O[C@H]3[C@@H](O)C[C@H](O[C@H]4CC[C@@]5(C)[C@H](CC[C@@H]6[C@@H]5CC[C@]5(C)[C@@H](C7=CC(=O)OC7)CC[C@]65O)C4)O[C@@H]3C)O[C@@H]2C)C[C@H](O)[C@@H]1O | 156.67
4) Cc1cccc(Nc2ccncc2S(=O)(=O)NC(=O)NC(C)C)c1 [TORSEMIDE] | 164.5
5) CC(C)(Oc1ccc(C2CCCc3ccccc32)cc1)C(=O)O (stereo not given) | 155.5
6) CC(=O)Nc1ccc(O)cc1 | 157.17
7) CC/C(=C(/CC)c1ccc(O)cc1)c1ccc(O)cc1 | 170.5
8) CCCCCCCCc1ccc(O)cc1 | 167.5
9) CC(C)Cc1ccc(C(C)C(=O)O)cc1 (stereo not given) | 164
10) CC(=O)Nc1cccc(O)c1 | 151.83
11) CCOC(=O)C(C)(C)Oc1ccc(Cl)cc1 [CLOFIBRATE] | 163.83
12) COCCOC(=O)C1=C(C)NC(C)=C(C(=O)OC(C)C)C1c1cccc([N+](=O)[O-])c1 (stereo not given) | 142.67
13) S=C=Nc1cccc2ccccc12 [1-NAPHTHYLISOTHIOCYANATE] | 155.17
14) Clc1ccc(Cl)cc1 | 184
15) COc1ccc2[nH]c([S+]([O-])Cc3ncc(C)c(OC)c3C)nc2c1 (stereo not given) | 170

----------
# Species: Rattus norvegicus
# assay explanation: DrugMatrix - Regimen: Daily Repeat
# Assay type: toxicity, organism-based, Sprague-Dawley
# Parameters: regimen Daily Repeat, gender Male, age 6-8 weeks
# conditions: in vivo, po, 10 mg/kg, 120 h, tissue Blood, route oral GAVAGE, dose level Low, time 5 day, […]
value type: MEAN CORPUSCULAR HEMOGLOBIN (pg)

1) CCOC(=O)C1=C(C)NC(C)=C(C(=O)OC)C1c1cccc([N+](=O)[O-])c1 (centres undefined) | 25.2
2) COCCOC(=O)C1=C(C)NC(C)=C(C(=O)OC(C)C)C1c1cccc([N+](=O)[O-])c1 (centres undefined) | 24.4
3) COc1ccc2cc([C@H](C)C(=O)O)ccc2c1 | 25.23
4) CC(C)CC(N(C)C)C1(c2ccc(Cl)cc2)CCC1 (centres undefined) | 24.83

----------
# Species on record: Rattus norvegicus
# assay explanation: DrugMatrix - Regimen: Daily Repeat
# Assay type: toxicity, organism-based, Sprague-Dawley
# Design: regimen Daily Repeat, gender Male, age 6-8 weeks
# conditions: in vivo, iv, 0 mg/kg, 72 h, tissue Plasma, dose level Control, time 3 day, vehicle 100 % SALINE
value type: CARBON DIOXIDE (mmol/L)

1. CC(=O)N[C@@H]1[C@H](Oc2c3cc4cc2Oc2ccc(cc2Cl)[C@@H](O[C@@H]2O[C@@H](CO)[C@@H](O)[C@H](O)[C@@H]2NC(C)=O)[C@@H]2NC(=O)[C@H](NC(=O)[C@@H]4NC(=O)[C@H]4NC(=O)[C@@H](Cc5ccc(c(Cl)c5)O3)NC(=O)[C@H](N)c3ccc(O)c(c3)Oc3cc(O)cc4c3)c3ccc(O)c(c3)-c3c(O[C@H]4O[C@H](CO)[C@@H](O)[C@@H](O)[C@@H]4O)cc(O)cc3[C@@H](C(=O)O)NC2=O)O[C@@H](CO)[C@@H](O)[C@@H]1O | 24.33

----------
# Species: Rattus norvegicus
# assay explanation: DrugMatrix - Regimen: Daily Repeat
# Assay type: toxicity, organism-based, Sprague-Dawley
# Set-up: regimen Daily Repeat, gender Male, age 6-8 weeks
# conditions: in vivo, po, 0 mg/kg, 120 h, tissue Plasma, route oral GAVAGE, dose level Control, time 5 day, vehicle 100 % WATER
Note to self: TOTAL BILIRUBIN under 0.2 mg/dL means y, ties and anything higher get n.

1. COc1cc2ncnc(Nc3ccc(F)c(Cl)c3)c2cc1OCCCN1CCOCC1 [GEFITINIB] | n
2. C[N+](C)(C)CCO.[Cl-] [CHOLINE CHLORIDE] | n
3. CC(C)C[C@H](NC(=O)[C@@H](O)[C@H](N)Cc1ccccc1)C(=O)O [UBENIMEX] | n
4. CC(C)(C)c1ccc(C(=O)CCCN2CCC(OC(c3ccccc3)c3ccccc3)CC2)cc1 [EBASTINE] | y
5. ClC(Cl)Cl [CHLOROFORM] | y
6. COC(=O)C1=C(C)NC(C)=C(C(=O)OCC(C)C)C1c1ccccc1[N+](=O)[O-] (stereo not given) [NISOLDIPINE] | y
7. Cc1ncc([N+](=O)[O-])n1CCO [METRONIDAZOLE] | y
8. Nc1ccn([C@@H]2CS[C@H](CO)O2)c(=O)n1 [LAMIVUDINE] | n
